assay system: USP25 (USP25-His6, Boston Biochem E-546) (Homo sapiens, UniProt Q9UHP3)
Construct: His6 (C); purchased Boston Biochem E-546
Sequence (Q9UHP3 whole entry): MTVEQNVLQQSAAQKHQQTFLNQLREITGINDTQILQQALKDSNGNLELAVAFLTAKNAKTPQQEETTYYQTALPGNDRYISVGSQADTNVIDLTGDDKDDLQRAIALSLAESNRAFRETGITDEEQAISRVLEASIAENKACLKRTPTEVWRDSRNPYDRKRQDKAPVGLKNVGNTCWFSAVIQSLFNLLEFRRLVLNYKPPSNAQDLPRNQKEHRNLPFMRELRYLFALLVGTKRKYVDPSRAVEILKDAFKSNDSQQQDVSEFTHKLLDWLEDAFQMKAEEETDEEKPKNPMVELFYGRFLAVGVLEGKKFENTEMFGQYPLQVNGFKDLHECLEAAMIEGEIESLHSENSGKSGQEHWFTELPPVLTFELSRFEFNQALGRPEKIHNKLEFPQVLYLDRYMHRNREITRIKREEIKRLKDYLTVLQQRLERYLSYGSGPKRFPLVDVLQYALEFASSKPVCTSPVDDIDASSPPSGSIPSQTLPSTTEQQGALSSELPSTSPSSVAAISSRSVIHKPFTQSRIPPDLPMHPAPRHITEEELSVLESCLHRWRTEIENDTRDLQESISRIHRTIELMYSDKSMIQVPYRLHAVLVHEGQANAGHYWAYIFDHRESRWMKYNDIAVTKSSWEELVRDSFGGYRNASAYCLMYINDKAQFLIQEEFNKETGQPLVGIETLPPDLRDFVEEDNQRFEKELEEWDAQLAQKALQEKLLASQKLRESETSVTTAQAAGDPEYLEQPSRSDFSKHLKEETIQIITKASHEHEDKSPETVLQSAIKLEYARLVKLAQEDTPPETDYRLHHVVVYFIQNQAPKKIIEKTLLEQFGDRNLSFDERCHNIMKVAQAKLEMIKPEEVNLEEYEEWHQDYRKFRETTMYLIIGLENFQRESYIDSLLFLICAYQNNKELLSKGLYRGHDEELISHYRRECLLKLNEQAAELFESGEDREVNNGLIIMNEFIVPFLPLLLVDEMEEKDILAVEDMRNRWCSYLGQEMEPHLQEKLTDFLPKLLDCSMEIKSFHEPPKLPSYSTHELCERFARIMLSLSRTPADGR
measurement description: Ubiquitin-Rhodamine 110 Assay for USP25 Activity, Example A-3
Type: biochemical
assay context: Ubiquitin-Rhodamine 110 assay, Example A-3; read-out: USP25 A-3 IC50 range
measurement label: IC50

Could you share which IC50 value was measured for Cc1ccc2c(N)c(C(=O)N[C@H]3CCc4c(C#N)c(N5CCNCC5)cc(F)c4C3)sc2n1 (single isomer, unassigned) [Example 14-10] ?
0.2 to 2 µM

For the compound Cc1ccc2c(N)c(C(=O)N[C@H]3CCc4nc(N5CC[C@]6(C5)OCC[C@H]6N)ccc4C3)sc2n1 [Example 408] , what IC50 is on record?
> 2 µM

Entry under review: Cc1cnc2c(N)c(C(=O)N[C@H]3CCc4cc(N5CCNCC5)ccc4C3)sc2n1 (single isomer, unassigned) [Example 11-19] . Reported IC50?
0.2 to 2 µM

Could you tell me which IC50 is on file for CCn1ccc2cc(C(=O)N[C@H]3CCc4nc(N5C[C@H](NC)[C@@H](OC)C5)ccc4C3)cnc21 [Example 402] ?
> 2 µM

* * *

assay system: USP28 (His-tagged USP28-FL-mammalian) (Homo sapiens)
Construct: Expression of USP28 (1-1077)-TEV-6*His (pTT5 vector) was carried out in Expi293f cells; made in house; host or cells: Expi293F cells (pTT5 vector)
Sequence (Q96RU2 1-1077): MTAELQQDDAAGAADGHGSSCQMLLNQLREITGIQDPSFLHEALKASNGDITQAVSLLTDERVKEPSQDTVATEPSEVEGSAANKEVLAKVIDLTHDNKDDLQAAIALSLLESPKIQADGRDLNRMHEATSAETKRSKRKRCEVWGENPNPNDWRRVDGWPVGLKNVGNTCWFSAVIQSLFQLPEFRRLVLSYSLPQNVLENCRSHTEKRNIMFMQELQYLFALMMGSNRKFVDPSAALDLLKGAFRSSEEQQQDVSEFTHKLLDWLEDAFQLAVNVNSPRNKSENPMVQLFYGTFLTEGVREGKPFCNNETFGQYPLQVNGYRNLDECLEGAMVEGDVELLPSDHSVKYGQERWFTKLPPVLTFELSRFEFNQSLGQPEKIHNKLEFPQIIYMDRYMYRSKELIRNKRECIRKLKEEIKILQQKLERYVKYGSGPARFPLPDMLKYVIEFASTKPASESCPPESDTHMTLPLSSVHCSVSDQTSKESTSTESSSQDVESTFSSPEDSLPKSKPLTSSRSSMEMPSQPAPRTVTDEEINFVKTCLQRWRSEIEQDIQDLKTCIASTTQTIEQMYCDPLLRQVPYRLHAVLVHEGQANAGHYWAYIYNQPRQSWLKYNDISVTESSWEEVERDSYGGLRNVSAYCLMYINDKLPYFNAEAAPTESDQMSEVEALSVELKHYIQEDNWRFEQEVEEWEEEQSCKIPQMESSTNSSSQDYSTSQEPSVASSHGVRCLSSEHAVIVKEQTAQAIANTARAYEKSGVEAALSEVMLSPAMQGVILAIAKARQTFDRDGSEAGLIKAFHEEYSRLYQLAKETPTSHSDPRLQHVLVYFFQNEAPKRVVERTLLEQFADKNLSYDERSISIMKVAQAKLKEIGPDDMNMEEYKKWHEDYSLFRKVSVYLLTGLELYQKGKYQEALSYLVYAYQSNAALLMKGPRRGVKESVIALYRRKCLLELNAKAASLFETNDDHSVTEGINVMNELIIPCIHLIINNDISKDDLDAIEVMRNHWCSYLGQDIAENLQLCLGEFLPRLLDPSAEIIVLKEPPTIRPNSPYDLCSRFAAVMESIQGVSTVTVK
measurement description: Ubiquitin-Rhodamine 110 Assay for USP28 Activity, Example A-1(a)
Assay type: biochemical
assay context: Ubiquitin-Rhodamine 110 assay, read-out: USP28 A-1(a) IC50 range
measurement label: IC50

Entry Cc1nc2sc(C(=O)N[C@H]3CCc4c(C#N)c(N5CC6CCC(C5)N6)cc(F)c4C3)c(N)c2s1 (single isomer, unassigned) has what IC50?
1 to 50 nM
